- SYSTEM: DPP-4 (manufactured by Sigma, derived from porcine kidney) (porcine, UniProt P22411 38-766, limits assumed)
- Sequence (P22411 38-766 limits assumed): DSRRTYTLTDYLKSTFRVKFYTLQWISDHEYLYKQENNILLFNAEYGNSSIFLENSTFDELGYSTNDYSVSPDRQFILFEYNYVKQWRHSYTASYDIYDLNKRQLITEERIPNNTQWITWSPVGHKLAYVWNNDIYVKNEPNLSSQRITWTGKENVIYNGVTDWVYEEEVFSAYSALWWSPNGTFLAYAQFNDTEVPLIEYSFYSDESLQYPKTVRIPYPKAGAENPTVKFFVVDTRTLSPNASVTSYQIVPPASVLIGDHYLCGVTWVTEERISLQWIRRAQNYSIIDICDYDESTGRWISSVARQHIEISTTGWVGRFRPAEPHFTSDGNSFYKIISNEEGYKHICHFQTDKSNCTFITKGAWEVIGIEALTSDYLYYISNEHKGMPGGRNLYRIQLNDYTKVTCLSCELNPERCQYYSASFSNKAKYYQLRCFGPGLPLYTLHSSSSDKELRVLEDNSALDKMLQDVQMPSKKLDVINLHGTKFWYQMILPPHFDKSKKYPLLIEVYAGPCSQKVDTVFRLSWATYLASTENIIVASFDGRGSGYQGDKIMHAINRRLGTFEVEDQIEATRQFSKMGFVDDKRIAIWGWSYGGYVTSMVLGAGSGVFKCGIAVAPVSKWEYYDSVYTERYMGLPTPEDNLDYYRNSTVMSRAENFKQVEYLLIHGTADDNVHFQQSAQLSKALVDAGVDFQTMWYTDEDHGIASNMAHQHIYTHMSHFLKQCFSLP
- EXPERIMENT NOTES: cell-based or functional assay
Square brackets hold non-standard residues; d marks the D form. Ends that are not written are not given here. Hyp = O=C(O)[C@@H]1C[C@@H](O)CN1
MEASURED PROPERTY: Inhibition rate (%) at 0.35 mg/ml time

Observe how each entry below is paired with its result.
BINDER: GAVGPA [Gly-Ala-Val-Gly-Pro-Ala]
MEASURED PROPERTY: Inhibition rate (%) at 0.35 mg/ml time
ENDPOINT VALUE: 63.7

BINDER: GPV [Gly-Pro-Val]
MEASURED PROPERTY: Inhibition rate (%) at 0.35 mg/ml time
ENDPOINT VALUE: 76.5

I. GPE [Gly-Pro-Glu]
II. GA [Gly-Ala]
III. Gly-Ala-[Hyp] [Gly-Ala-Hyp]
Falling order of Inhibition rate (%) at 0.35 mg/ml time, please. Kindly provide the labels arranged according to the requested ordering.
I, II, III
